Target: T1, GST-MLK3 SH3(43–104) (human, UniProt Q16584 43-104)
T1 construct: also called GST-MLK3 SH3-WT; SH3 WT
T1 sequence (looked up): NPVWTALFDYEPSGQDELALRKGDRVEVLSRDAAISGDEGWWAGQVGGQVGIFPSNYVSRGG
Experiment: ELISA
Details: both partners purified
measuredQuantity: IC50
Reply with a number, then the unit it belongs to.

IN: Name the recorded IC50 for AIRINPNGTWSRQAETVES (also called MIP(1–19); soluble MIP peptide; source: synthetic peptide) [unlabeled MIP (synthetic)] .
OUT: 6.6 µM
